Items are presented alongside their recorded kon.
- measured-target: T1, AFP158/HLA-A*02:01 complex (human)
- T1 construct: flowed as analyte in SPR
- protocol: SPR, crude scFv captured, pMHC analyte;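 further: Peptide-MHC complex at several concentrations passed over captured scFv, association then buffer-driven dissociation, on- and off-rates fitted from the curves and KD estimated from them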
Dear colleague, please return just the value in M⁻¹ s⁻¹, with no unit written.

Consider the following illustrative entries.
# binder, kon (M⁻¹ s⁻¹)
data = [
    ("AS170036 VL1VH1-VHS57K (scFv) scFv: QSALTQPRSVSGSPGQSVTISCAGTSSDVGSENYVSWYQQHPGKAPKLMIYQVNKRASGVPDRFSGSKSGNTASLTISGLQAEDEADYYCASYRSSDHNIVFGGGTKLTVLGGGGSGGGGSGGGGSEVQLVESGGGLVQPGGSLRLSCAASGFTFSSYAMSWVRQAPGKGLEWVSTINSGTGKPYYADSVKGRFTISRDNSKNTLYLQMNSLRAEDTAVYYCAKNFFDGSWFLGPPAMDYWGQGTLVTVSSHHHHHH", 150000),
    ("AS170036 VL1VH1-VHG108D (scFv) scFv: QSALTQPRSVSGSPGQSVTISCAGTSSDVGSENYVSWYQQHPGKAPKLMIYQVNKRASGVPDRFSGSKSGNTASLTISGLQAEDEADYYCASYRSSDHNIVFGGGTKLTVLGGGGSGGGGSGGGGSEVQLVESGGGLVQPGGSLRLSCAASGFTFSSYAMSWVRQAPGKGLEWVSTINSGTGSPYYADSVKGRFTISRDNSKNTLYLQMNSLRAEDTAVYYCAKNFFDGSWFLDPPAMDYWGQGTLVTVSSHHHHHH", 370000),
    ("AS170036 VL1VH1-VHG108M (scFv) scFv: QSALTQPRSVSGSPGQSVTISCAGTSSDVGSENYVSWYQQHPGKAPKLMIYQVNKRASGVPDRFSGSKSGNTASLTISGLQAEDEADYYCASYRSSDHNIVFGGGTKLTVLGGGGSGGGGSGGGGSEVQLVESGGGLVQPGGSLRLSCAASGFTFSSYAMSWVRQAPGKGLEWVSTINSGTGSPYYADSVKGRFTISRDNSKNTLYLQMNSLRAEDTAVYYCAKNFFDGSWFLMPPAMDYWGQGTLVTVSSHHHHHH", 220000),
    ("AS170036 VL1VH1-VLH98V (scFv) scFv: QSALTQPRSVSGSPGQSVTISCAGTSSDVGSENYVSWYQQHPGKAPKLMIYQVNKRASGVPDRFSGSKSGNTASLTISGLQAEDEADYYCASYRSSDVNIVFGGGTKLTVLGGGGSGGGGSGGGGSEVQLVESGGGLVQPGGSLRLSCAASGFTFSSYAMSWVRQAPGKGLEWVSTINSGTGSPYYADSVKGRFTISRDNSKNTLYLQMNSLRAEDTAVYYCAKNFFDGSWFLGPPAMDYWGQGTLVTVSSHHHHHH", 230000),
    ("AS170036 VL1VH1-VHG56Y (scFv) scFv: QSALTQPRSVSGSPGQSVTISCAGTSSDVGSENYVSWYQQHPGKAPKLMIYQVNKRASGVPDRFSGSKSGNTASLTISGLQAEDEADYYCASYRSSDHNIVFGGGTKLTVLGGGGSGGGGSGGGGSEVQLVESGGGLVQPGGSLRLSCAASGFTFSSYAMSWVRQAPGKGLEWVSTINSGTYSPYYADSVKGRFTISRDNSKNTLYLQMNSLRAEDTAVYYCAKNFFDGSWFLGPPAMDYWGQGTLVTVSSHHHHHH", 170000),
]

Assign kon to the following record: AS170036 VL1VH1-VLH98A (scFv) scFv: QSALTQPRSVSGSPGQSVTISCAGTSSDVGSENYVSWYQQHPGKAPKLMIYQVNKRASGVPDRFSGSKSGNTASLTISGLQAEDEADYYCASYRSSDANIVFGGGTKLTVLGGGGSGGGGSGGGGSEVQLVESGGGLVQPGGSLRLSCAASGFTFSSYAMSWVRQAPGKGLEWVSTINSGTGSPYYADSVKGRFTISRDNSKNTLYLQMNSLRAEDTAVYYCAKNFFDGSWFLGPPAMDYWGQGTLVTVSSHHHHHH 260000

Please give measured kon of the following entry: AS170036 VL1VH1-VLE32W (scFv) scFv: QSALTQPRSVSGSPGQSVTISCAGTSSDVGSWNYVSWYQQHPGKAPKLMIYQVNKRASGVPDRFSGSKSGNTASLTISGLQAEDEADYYCASYRSSDHNIVFGGGTKLTVLGGGGSGGGGSGGGGSEVQLVESGGGLVQPGGSLRLSCAASGFTFSSYAMSWVRQAPGKGLEWVSTINSGTGSPYYADSVKGRFTISRDNSKNTLYLQMNSLRAEDTAVYYCAKNFFDGSWFLGPPAMDYWGQGTLVTVSSHHHHHH 150000

In one line, give reported kon of the entry AS170036 VL1VH1 (scFv, Crude scFv from E. coli TG1 supernatant; also called AS170036 VL1VH1 scFv) scFv: QSALTQPRSVSGSPGQSVTISCAGTSSDVGSENYVSWYQQHPGKAPKLMIYQVNKRASGVPDRFSGSKSGNTASLTISGLQAEDEADYYCASYRSSDHNIVFGGGTKLTVLGGGGSGGGGSGGGGSEVQLVESGGGLVQPGGSLRLSCAASGFTFSSYAMSWVRQAPGKGLEWVSTINSGTGSPYYADSVKGRFTISRDNSKNTLYLQMNSLRAEDTAVYYCAKNFFDGSWFLGPPAMDYWGQGTLVTVSSHHHHHH . 380000

Answer with the recorded kon for the binder listed here: AS170036 VL1VH1-VHG108E (scFv) scFv: QSALTQPRSVSGSPGQSVTISCAGTSSDVGSENYVSWYQQHPGKAPKLMIYQVNKRASGVPDRFSGSKSGNTASLTISGLQAEDEADYYCASYRSSDHNIVFGGGTKLTVLGGGGSGGGGSGGGGSEVQLVESGGGLVQPGGSLRLSCAASGFTFSSYAMSWVRQAPGKGLEWVSTINSGTGSPYYADSVKGRFTISRDNSKNTLYLQMNSLRAEDTAVYYCAKNFFDGSWFLEPPAMDYWGQGTLVTVSSHHHHHH 350000
